Biological target: HAT1 (Homo sapiens, UniProt O14929)
Sequence (O14929 whole entry): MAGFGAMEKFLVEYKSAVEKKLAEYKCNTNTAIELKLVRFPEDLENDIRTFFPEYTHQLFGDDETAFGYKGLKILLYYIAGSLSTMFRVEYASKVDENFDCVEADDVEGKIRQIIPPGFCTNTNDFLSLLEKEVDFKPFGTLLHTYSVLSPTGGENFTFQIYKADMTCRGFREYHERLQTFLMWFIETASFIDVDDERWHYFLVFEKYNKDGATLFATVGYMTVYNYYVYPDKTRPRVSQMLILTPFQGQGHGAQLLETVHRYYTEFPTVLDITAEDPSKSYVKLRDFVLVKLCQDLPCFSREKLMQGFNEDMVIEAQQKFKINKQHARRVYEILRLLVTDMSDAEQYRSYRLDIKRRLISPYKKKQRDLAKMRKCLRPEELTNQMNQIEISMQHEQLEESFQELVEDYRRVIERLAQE
Assay: FDA library screening (analysis service PLEXERA) and binding strength, HAT1
measurementName: inhibition of function of HAT1

- CO[C@]12C[C@@H](COC(=O)c3cncc(Br)c3)CN(C)[C@@H]1Cc1cn(C)c3cccc2c13: inhibited only HAT1
- CCc1cccc(CC)c1NC(=O)CN(CC(=O)O)CC(=O)O: inhibited only HAT1

====

Biological target: KAT8 (Homo sapiens, UniProt Q9H7Z6)
Sequence (Q9H7Z6 whole entry): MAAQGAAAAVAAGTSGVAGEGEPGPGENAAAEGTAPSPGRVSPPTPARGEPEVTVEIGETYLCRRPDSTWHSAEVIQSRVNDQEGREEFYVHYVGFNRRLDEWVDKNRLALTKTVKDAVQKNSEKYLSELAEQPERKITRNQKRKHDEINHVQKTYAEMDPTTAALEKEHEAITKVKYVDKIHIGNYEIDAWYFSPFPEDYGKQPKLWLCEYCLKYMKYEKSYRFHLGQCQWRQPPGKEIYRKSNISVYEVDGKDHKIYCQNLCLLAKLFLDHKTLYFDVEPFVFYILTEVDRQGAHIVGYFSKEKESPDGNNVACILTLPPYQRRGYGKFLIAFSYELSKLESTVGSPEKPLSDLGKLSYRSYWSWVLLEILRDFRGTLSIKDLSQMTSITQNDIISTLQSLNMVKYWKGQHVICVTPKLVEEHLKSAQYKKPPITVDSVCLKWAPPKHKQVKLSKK
Experiment: FDA library screening (analysis service PLEXERA) and binding strength, KAT8
Text: Medicines containing each as an active ingredient (provided that each medicine has an indication other than that for malignant tumors) have already been commercially available. Meanwhile, medicines containing each as an active ingredient (provided that each medicine has an indication other than that for malignant tumors) have already been commercially available.
Where a name gives a salt, the structure may show the parent alone.
measurementName: inhibition of function of KAT8

* CCCCNc1cc(C(=O)O)cc(S(N)(=O)=O)c1Oc1ccccc1 [bumetanide] | inhibited only KAT8
* COCCc1ccc(OCC(O)CNC(C)C)cc1.COCCc1ccc(OCC(O)CNC(C)C)cc1.O=C(O)C(O)C(O)C(=O)O (racemic) [metoprolol-(+,−)(+)-tartrate salt] | inhibited only KAT8
* CCCN1C[C@H](CSC)C[C@@H]2c3cccc4[nH]cc(c34)C[C@H]21 [pergolide mesylate] | inhibited only KAT8
